Where these numbers come from: ChEMBL document CHEMBL5625266

# Test: Stability of the compound in PBS at pH 7.4 measured after 24 hrs
# Assay type: physicochemical
# Condition: read-out: Stability
Assay metric: remaining at 24 h (%)
Note: unit % is implicit; provide only the numeric part.

Exam item: Look up and report measured remaining at 24 h for this entry: CN1C(=O)C(C(=O)Nc2nc(Cc3ccccc3)n[nH]2)CCc2ccccc21 (stereo unspecified)
Marked response: 14
